Measured relative viability accompanies every entry in the list below.
Test system: G401
method_summary: relative viability vs DMSO control (72 h) (fraction); higher = more viable cells
recorded_conditions: 0.00017 µM
result_type: relative viability

compound="Nc1cc(C(F)(F)F)c(-c2cc(N3CCOCC3)nc(N3CCOCC3)n2)cn1 [Buparlisib]" result_type="relative viability" numeric_readout=0.957
compound="Cc1cnc(Nc2ccc(OCCN3CCCC3)cc2)nc1Nc1cccc(S(=O)(=O)NC(C)(C)C)c1 [Fedratinib]" result_type="relative viability" numeric_readout=1.03
compound="CC[C@H](Nc1ncnc2[nH]cnc12)c1nc2cccc(F)c2c(=O)n1-c1ccccc1 [Idelalisib]" result_type="relative viability" numeric_readout=1.06
compound="Cc1cc(C)c(/C=C2\\C(=O)Nc3ccccc32)[nH]1 [Semaxanib]" result_type="relative viability" numeric_readout=0.957
compound="C[C@@H](c1ccc2nccn2c1)n1nnc2ncc(-c3cnn(C)c3)nc21 [Volitinib]" result_type="relative viability" numeric_readout=1.01
compound="C[C@]1(O)C[C@@H](c2nc(-c3ccc4ccc(-c5ccccc5)nc4c3)c3c(N)nccn32)C1 [Linsitinib]" result_type="relative viability" numeric_readout=1
compound="O=C(Cc1ccc(-c2ccc(OCCN3CCOCC3)cc2)cn1)NCc1ccccc1 [KX2-391]" result_type="relative viability" numeric_readout=1.05
compound="Cc1nc(-c2cn3c(n2)-c2ccc(-c4cnn(C(C)(C)C(N)=O)c4)cc2OCC3)n(C(C)C)n1 [Taselisib]" result_type="relative viability" numeric_readout=0.995

---

Test system: A204
method_summary: standardised AUC of viability dose-response curve (72 h) (fraction (0-1)); higher = less growth inhibition (more resistant)
Measured standardised AUC accompanies every entry in the list below.
result_type: standardised AUC

smi=Nc1cc(C(F)(F)F)c(-c2cc(N3CCOCC3)nc(N3CCOCC3)n2)cn1 numeric_readout=0.754
smi=C[C@@H](c1ccc2nccn2c1)n1nnc2ncc(-c3cnn(C)c3)nc21 numeric_readout=0.974
smi=CC[C@H](Nc1ncnc2[nH]cnc12)c1nc2cccc(F)c2c(=O)n1-c1ccccc1 numeric_readout=0.939
smi=N#CC[C@H](C1CCCC1)n1cc(-c2ncnc3[nH]ccc23)cn1 numeric_readout=0.951
smi=CN1CCN(c2ccc3nc(-c4c(N)c5c(F)cccc5[nH]c4=O)[nH]c3c2)CC1 numeric_readout=0.748

---

Measured relative viability accompanies every entry in the list below.
Tested on: SW684
method_summary: relative viability vs DMSO control (72 h) (fraction); higher = more viable cells
recorded_conditions: 0.1235 µM
result_type: relative viability

smi=COc1cc2c(Oc3ccc4[nH]c(C)cc4c3F)ncnc2cc1OCCCN1CCCC1 result_type="relative viability" numeric_readout=1.15
smi=C[C@@H](c1ccc2nccn2c1)n1nnc2ncc(-c3cnn(C)c3)nc21 result_type="relative viability" numeric_readout=1.16
smi=Nc1cc(C(F)(F)F)c(-c2cc(N3CCOCC3)nc(N3CCOCC3)n2)cn1 result_type="relative viability" numeric_readout=1.03
smi=CC(C)(C)c1cc(NC(=O)Nc2ccc(-c3cn4c(n3)sc3cc(OCCN5CCOCC5)ccc34)cc2)no1 result_type="relative viability" numeric_readout=1.21
smi=Cn1cc(-c2cc3c(N4CCN(c5ncc([C@@](C)(N)c6ccc(F)cc6)cn5)CC4)ncnn3c2)cn1 result_type="relative viability" numeric_readout=1.09
smi=O=C(Cc1ccc(-c2ccc(OCCN3CCOCC3)cc2)cn1)NCc1ccccc1 result_type="relative viability" numeric_readout=0.77
smi=C=CC(=O)N1CCC[C@@H](n2nc(-c3ccc(Oc4ccccc4)cc3)c3c(N)ncnc32)C1 result_type="relative viability" numeric_readout=1.15
smi=CC(=O)Nc1cccc(-n2c(=O)n(C3CC3)c(=O)c3c(Nc4ccc(I)cc4F)n(C)c(=O)c(C)c32)c1 result_type="relative viability" numeric_readout=0.615
smi=Cc1ccc(F)c(NC(=O)Nc2ccc(-c3cccc4[nH]nc(N)c34)cc2)c1 result_type="relative viability" numeric_readout=1.15
smi=Cn1cnc2c(F)c(Nc3ccc(Br)cc3F)c(C(=O)NOCCO)cc21 result_type="relative viability" numeric_readout=1.06
